src = the supplement of paper PMC10567573

B1: ADAMTS4 (parent)
chain: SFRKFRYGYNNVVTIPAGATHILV

- Variants of: B1
- assayRemarks: protein stability index of a GFP-peptide fusion (GPS, HEK-293T) (PSI 1-6); higher = more stable;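 note: lentivirally expressed fusions sorted by FACS into six bins by GFP to DsRed ratio, PSI derived from sequencing read proportions per bin multiplied by bin number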
- experimentalConditions: c terminus: a fixed tail appended
Assign Satisfied whenever protein stability index does not fall below 2; assign Not satisfied whenever it does.

Query: Say whether `L23R` shows protein stability index of 2 or more.
Reply: Not satisfied

Query: Repeat with `Y7K`
Reply: Satisfied

Query: Repeat with `N10G`
Reply: Not satisfied

Query: Repeat with `Y7M`
Reply: Satisfied

Query: Repeat with `S1H`
Reply: Not satisfied

Query: Repeat with `N10T`
Reply: Satisfied

Query: Repeat with `T20C`
Reply: Satisfied

Query: Repeat with `G8I`
Reply: Satisfied

Query: Repeat with `T20I`
Reply: Satisfied

Query: Repeat with `L23N`
Reply: Not satisfied

Query: Repeat with `T14W`
Reply: Satisfied

Query: Repeat with `F2M`
Reply: Satisfied

Query: Repeat with `N11K`
Reply: Not satisfied

Query: Repeat with `V13D`
Reply: Satisfied

Query: Repeat with `V12N`
Reply: Not satisfied

Query: Repeat with `L23Y`
Reply: Satisfied

Query: Repeat with `V12K`
Reply: Satisfied

Query: Repeat with `A19W`
Reply: Satisfied

Query: Repeat with `A17Y`
Reply: Not satisfied

Query: Repeat with `S1V`
Reply: Satisfied

Query: Repeat with `R6N`
Reply: Satisfied

Query: Repeat with `S1E`
Reply: Satisfied

Query: Repeat with `V24H`
Reply: Not satisfied

Query: Repeat with `T14A`
Reply: Not satisfied

Query: Repeat with `I22Y`
Reply: Not satisfied

Query: Repeat with `R6Q`
Reply: Satisfied

Query: Repeat with `Y9K`
Reply: Satisfied

Query: Repeat with `R3V`
Reply: Satisfied

Query: Repeat with `P16E`
Reply: Satisfied

Query: Repeat with `T20V`
Reply: Satisfied

Query: Repeat with `A19L`
Reply: Satisfied

Query: Repeat with `V13W`
Reply: Satisfied

Query: Repeat with `K4F`
Reply: Satisfied

Query: Repeat with `T14P`
Reply: Not satisfied

Query: Repeat with `F2P`
Reply: Satisfied

Query: Repeat with `I15L`
Reply: Satisfied

Query: Repeat with `G18W`
Reply: Not satisfied

Query: Repeat with `L23I`
Reply: Satisfied

Query: Repeat with `Y7S`
Reply: Satisfied

Query: Repeat with `S1P`
Reply: Satisfied
